# Target under test: HIV-1 reverse transcriptase (Human immunodeficiency virus type 1 group M subtype B, UniProt P04585)
# Construct: purified recombinant HIV-1 reverse transcriptase (RT, EC, 2.7.7.49) obtained by expression in Escherichia Coli
# Test description: Inhibition of HIV-1 Reverse Transcriptase Enzyme
# Test conditions: purified recombinant HIV-1 RT expressed in Escherichia Coli; [3H]-SPA or [3H]-flashplate enzyme assay; 5% final DMSO
Readout kind: IC50
Number plus unit, in that order.

>>> df
                           smiles_structure  readout_kind  recorded_measurement
0  CCc1n[nH]c(CCOc2ccc(S(C)(=O)=O)cc2)c1Oc1cc(C#N)cc(C#N)c1          IC50                 45 nM

Turning to the following compound.
Query string: Look up IC50: CCc1n[nH]c(CCOc2ccc(SC)cc2)c1Oc1cc(C#N)cc(C#N)c1
Result string: 2 nM
